system: HeLa Kyoto; test: solubility change mitosis vs G1/S (difference of NP-40 vs SDS log2 ratios) (log2 ratio difference); higher = more soluble in mitosis;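 further: synchronized HeLa Kyoto cells (double thymidine block for G1/S, nocodazole release for mitosis), protein amounts in NP-40 versus SDS lysates quantified by mass spectrometry, three biological replicates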
Please go through the items and note down their solubility change mitosis (log2).
Answers are plain numbers.

| Ordered Residues | solubility change mitosis (log2) |
| --- | --- |
| MAQSRDGGNPFAEPSELDNPFQDPAVIQHRPSRQYATLDVYNPFETREPPPAYEPPAPAPLPPPSAPSLQPSRKLSPTEPKNYGSYSTQASAAAATAELLKKQEELNRKAEELDRRERELQHAALGGTATRQNNWPPLPSFCPVQPCFFQDISMEIPQEFQKTVSTMYYLWMCSTLALLLNFLACLASFCVETNNGAGFGLSILWVLLFTPCSFVCWYRPMYKAFRSDSSFNFFVFFFIFFVQDVLFVLQAIGIPGWGFSGWISALVVPKGNTAVSVLMLLVALLFTGIAVLGIVMLKRIHSLYRRTGASFQKAQQEFAAGVFSNPAVRTAAANAAAGAAENAFRAP [SCAMP3] | -0.173 |
| MMCGAPSATQPATAETQHIADQVRSQLEEKENKKFPVFKAVSFKSQVVAGTNYFIKVHVGDEDFVHLRVFQSLPHENKPLTLSNYQTNKAKHDELTYF [CSTB] | -0.077 |

Okay, next one:
Challenge: Which value of solubility change mitosis (log2) has been reported for MSQTAMSETYDFLFKFLVIGNAGTGKSCLLHQFIEKKFKDDSNHTIGVEFGSKIINVGGKYVKLQIWDTAGQERFRSVTRSYYRGAAGALLVYDITSRETYNALTNWLTDARMLASQNIVIILCGNKKDLDADREVTFLEASRFAQENELMFLETSALTGENVEEAFVQCARKILNKIESGELDPERMGSGIQYGDAALRQLRSPRRAQAPNAQECGC [RAB4A] in the records?
Response given: -0.0763
